The entries below pair compounds with pKi values for Muscarinic acetylcholine receptor M2 (Homo sapiens, UniProt P08172), as found in several publications.
Formally, pKi is defined as -log10 of the concentration c, with c in mol/L.

Quick note, pKi for CCCN[C@@H](CCCNC(=N)N)C(=O)N[C@@H](CCCCN)C(=O)NC(C)=O landed at 5.19

Documented pKi of CC(C1=C(CCN(C)CCF)Cc2ccccc21)c1ccccn1 (centres undefined) : 7.49

For record CC(=O)OCCCCCCCCCCCCOc1nsnc1C1=CCCN(C)C1 the listed pKi is 7.80

====

Below: molecules with pKi recorded for Muscarinic acetylcholine receptor M2 (Homo sapiens, UniProt P08172) in separate published works.
# log scale: pKi equals minus log10 of the concentration in mol/L

Worked set:
INSERT INTO measurements (molecule, recorded_measurement) VALUES
  ('CCCS(=O)(=O)N1CCC(N2CCC(Oc3ccc(S(=O)(=O)c4ccc(OC)cc4)cc3)CC2)CC1', 6.86),
  ('CC1(C)CN(CC/C=C2/c3cc(C(=O)O)ccc3OCc3ncccc32)C[C@H](c2ccc(Cl)cc2)[C@H]1O', 8.89),
  ('CC(c1ccc(S(=O)(=O)c2ccc(C(C)(C)C)cc2)cc1)N1CCN(C2CCCCC2)CC1 (stereo not given)', 7.48),
  ('O=C(OCOCCN1CCOCC1)C1(c2ccc(Cl)c(Cl)c2)CCCCC1', 5.92),
  ('CC(C)(O)CC[C@H](C[C@H](O)[C@H](Cc1cccc(F)c1)NC(=O)c1cnc2ccccc2n1)C(N)=O', 5.88),
  ('O=C1CCc2ccccc2N1CCCN1CCC(CCCCCCCCCC2CCN(CCCN3C(=O)CCc4ccccc43)CC2)CC1', 7.10),
  ('CCN(CC)CCOCCOC(=O)C1(c2ccccc2)CCCCC1', 6.84),
  ('CN1CCC[C@H]1[C@H]1C[S+]([O-])C(c2ccccc2)(c2ccccc2)O1 (stereo in doubt; (-)-5)', 6.66),
  ('CC1CCN(CCCN2C(=O)CCc3ccccc32)CC1', 4.94),
  ('CCN(CC)CCOCOC(=O)C1(c2ccc(Cl)c(Cl)c2)CCCCC1', 7.66);

Let me check: CN1CCC=C(c2nsnc2OCCCCCCCCCCCC2CCN(CCCN3C(=O)CCc4ccccc43)CC2)C1 , system Muscarinic acetylcholine receptor M2 (Homo sapiens, UniProt P08172), measured pKi is 7.05

Record CCN(CC)CCCC(C)Nc1cnc(C(=O)Nc2cc(F)cc3cccnc23)cn1 (stereo not given) ; system Muscarinic acetylcholine receptor M2 (Homo sapiens, UniProt P08172); pKi = 6.41

Observed pKi on Muscarinic acetylcholine receptor M2 (Homo sapiens, UniProt P08172), entry C[C@@H]1CCCN1CCCOc1ccc(-c2ccc(=O)[nH]n2)cc1 , equals 5.43

====

The compounds below each have a reported Ki tested on Muscarinic acetylcholine receptor M2 (Homo sapiens, UniProt P08172); the values come from various publications.

Please review the following examples before continuing.
INSERT INTO measurements (compound, recorded_measurement) VALUES
  ('COc1ccc(NC(=O)N2CCN(c3ccccc3OC)CC2)cc1N1CCN(C)CC1', '> 10000 nM'),
  ('C=C(c1ccc(S(=O)(=O)c2ccc(OC)cc2)cc1)C1CCN(C2CCN(C(=O)OCC(C)C)CC2)CC1', '0.3 nM');

Lab note: next compound to report on.
Log: Muscarinic acetylcholine receptor M2 (Homo sapiens, UniProt P08172), compound C[C@@H]1OC(=O)[C@H]2C=C3CCCC[C@@H]3[C@@H]([C@@H]3CC4CCC(C)(C)N4O3)[C@@H]12 (stereo partly drawn) , Ki = > 1400 nM

====

Compiled literature Ki, tested on Muscarinic acetylcholine receptor M2 (Homo sapiens).
Categorized via Ki: low bracket (below 4 nM), middle bracket (4 nM to below 600 nM), high bracket (600 nM or more)

INSERT INTO assay_data (compound, class_assignment) VALUES
  ('CCCCS(=O)(=O)N1CCC(N2CCC(Oc3ccc(S(=O)(=O)c4ccc5c(c4)OCO5)cc3)CC2)CC1', 'middle bracket'),
  ('CC(C)NC(=O)c1ccc(CC2CCN(C3CCN(C(=O)c4ccc(F)c5c(F)cccc45)CC3)CC2)cc1', 'middle bracket'),
  ('CN1CCC[C@@H]1[C@@H]1C[S+]([O-])C(c2ccccc2)(c2ccccc2)O1 (stereo in doubt; (+)-5)', 'middle bracket');

Task: Hey, which category is CCN(CC)CCOCCOC(=O)C(C)c1ccccc1 (stereo not drawn) in, do you know?
Output: high bracket

Task: Which class holds CN(CCc1ccccn1)[C@H]1C2C3CC4C2C(=O)C2C4C3C21 (stereo partly drawn) ?
Output: high bracket

====

Target: Muscarinic acetylcholine receptor M2 (Homo sapiens)
Sequence (P08172 whole entry): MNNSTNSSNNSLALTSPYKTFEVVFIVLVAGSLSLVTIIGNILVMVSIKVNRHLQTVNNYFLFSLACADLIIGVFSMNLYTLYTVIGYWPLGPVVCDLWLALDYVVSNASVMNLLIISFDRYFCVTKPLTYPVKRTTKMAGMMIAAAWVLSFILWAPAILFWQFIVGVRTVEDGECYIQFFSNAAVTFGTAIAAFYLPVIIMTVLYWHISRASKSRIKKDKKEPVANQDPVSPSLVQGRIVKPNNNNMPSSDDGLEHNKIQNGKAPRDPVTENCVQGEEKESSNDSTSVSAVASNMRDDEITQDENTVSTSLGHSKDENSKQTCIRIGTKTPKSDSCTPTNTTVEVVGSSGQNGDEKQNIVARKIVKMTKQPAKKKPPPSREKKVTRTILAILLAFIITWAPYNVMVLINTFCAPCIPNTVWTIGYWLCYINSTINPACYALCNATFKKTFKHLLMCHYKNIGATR
pKi: −log10 of the molar value.
Header: pKi / Muscarinic acetylcholine receptor M2 (Homo sapiens) / multiple publications

Check out these entries, answers already filled in.
INSERT INTO results (compound, recorded_measurement) VALUES
  ('CN1CCc2c(c3cccc4c3n2-c2ccccc2CC4)C1', '< 5.00'),
  ('CN1CCCC(OC(=O)N(c2ccccc2)c2ccccc2)C1 (centres undefined)', '< 6.00'),
  ('CN1CCC[C@H]1[C@H]1CNC(=O)O1', '< 4.00');

Now, please, on to the next compound.
For reference, reported pKi for CCCCN1CCC(COC(=O)c2ccc(N)c(OC)c2)CC1 stands at < 5.00

====

Endpoint summary: Ki, system: Muscarinic acetylcholine receptor M2 (Homo sapiens, UniProt P08172), multiple sources combined.
Please map values of Ki to classes as shown: 0: < 8 nM; 1: ≥ 8 nM and < 700 nM; 2: ≥ 700 nM

Completed entries (count: 5):
INSERT INTO assay_data (molecule, class_assignment) VALUES
  ('COc1ccc(NC(=O)c2ccc(-c3ccc(-c4noc(C)n4)cc3C)cc2)cc1N1CCN(C)CC1', 2),
  ('CC(=C1CCN(C2CCN(C(=O)c3ccc(F)c4ccccc34)CC2)CC1)c1ccc([S+]([O-])C(C)C)cc1 (single isomer, unassigned; (-))', 0),
  ('C[N+]1(CCCC(O)(c2ccccc2)c2ccccc2)CCCCC1', 1),
  ('C[C@H]1CC[C@H](C)N1CCCOc1ccc(-c2ccc(C(=O)N3CCOCC3)cc2)cc1', 2),
  ('Cc1ccccc1C(=O)N1CCC(N2CCN([C@@H](C)c3ccc(S(=O)(=O)c4cccc(C(F)(F)F)c4)cc3)[C@H](C)C2)CC1', 0);

Task: For Cc1c(N)cccc1C(=O)N1CCC(N2CCC(Cc3ccc(C(=O)NC(C)C)cc3)CC2)CC1 , which Ki bin applies?
Output: 0

Task: Which bin, given its Ki, does COc1ccc(S(=O)(=O)c2ccc(C(C#N)N3CCN(C4CCCCC4)CC3)cc2)cc1 (configuration not stated) occupy?
Output: 0

Task: State the band of C[N+]1(CCCC(O)(c2ccccc2)c2ccccc2)CCN(c2ccccc2)CC1
Output: 2

Task: The entry to classify is CC1CCc2ccccc2N1CC(=O)N1CCCCC1 (configuration not stated) ; which class holds it?
Output: 2

====

// cross-study collection: pKi for the protein given by its sequence
Sequence of the target: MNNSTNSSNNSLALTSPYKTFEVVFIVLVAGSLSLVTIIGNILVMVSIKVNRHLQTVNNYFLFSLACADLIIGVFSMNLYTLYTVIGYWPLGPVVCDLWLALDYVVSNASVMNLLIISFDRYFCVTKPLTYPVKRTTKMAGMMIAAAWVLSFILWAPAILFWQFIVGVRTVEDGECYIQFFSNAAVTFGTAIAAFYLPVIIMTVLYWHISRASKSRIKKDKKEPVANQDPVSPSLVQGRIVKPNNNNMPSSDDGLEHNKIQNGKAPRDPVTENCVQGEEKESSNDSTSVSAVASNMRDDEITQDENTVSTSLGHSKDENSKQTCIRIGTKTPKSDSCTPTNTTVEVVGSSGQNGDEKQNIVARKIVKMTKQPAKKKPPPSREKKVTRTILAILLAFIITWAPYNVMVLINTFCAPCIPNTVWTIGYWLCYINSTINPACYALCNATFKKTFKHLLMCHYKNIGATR
pKi: −log10 of the molar value.
Please map values of pKi to classes as shown: low range: < 6; mid range: ≥ 6 and < 9; high range: ≥ 9

INSERT INTO measurements (compound, class_assignment) VALUES
  ('CN(C)CCC1=C(Cc2cccnc2)c2ccccc2C1', 'low range'),
  ('CC1(C)C(/C=C/C=C/C=C2/N(CCCCS(=O)(=O)O)c3ccccc3C2(C)C)=[N+](CCCCCC(=O)NCCCCCCCCN2CCC(OC(=O)Nc3ccc(F)cc3-c3ccc(F)c(Cl)c3)CC2)c2ccc(S(=O)(=O)[O-])cc21', 'mid range'),
  ('CCCN[C@@H](CCCNC(=N)N)C(=O)N[C@@H](C)C(=O)N[C@@H](CCCCN)C(=O)NC(C)=O', 'low range'),
  ('C[C@@H]1CN(C2CCN(C(=O)c3cccc4c3OCO4)CC2)CCN1[C@@H](C)c1ccc(S(=O)(=O)c2ccc3c(c2)OCO3)cc1', 'high range'),
  ('C[N+]1(C)CCC[C@H]1[C@H]1C[S+]([O-])[C@](c2ccccc2)(C2CCCCC2)O1.[I-] (stereo in doubt; (-)-14)', 'mid range'),
  ('COc1ccc([S+]([O-])c2ccc(C(N3CCN(C4CCCCC4)CC3)C(F)(F)F)cc2)cc1 (stereo not drawn)', 'mid range'),
  ('Cc1nccn1CC#CCOc1ccon1', 'mid range'),
  ('Cc1ccccc1C(=O)N1CCC(N2CCN([C@@H](C)c3ccc(S(=O)(=O)c4ccc5c(c4)OCO5)cc3)[C@H](C)C2)CC1', 'high range');

Consider the record given below.
Task: // return the class label for COc1ccc(NC(=O)N2CCN(c3ccc(-c4ccccc4)cc3)CC2)cc1N1CCN(C)CC1
Output: low range
